Please provide measured Tension (contractile response to 5-HT in absolute terms) for the entries that follow.
test system: human pulmonary arteries; assay: Influence of antagonists/inhibitors on 5-HT-induced vasoconstriction of isolated human pulmonary arteries; assay type: cell-based; conditions: 5-HT in presence of: citalopram 1 μM, SB224289 0.2 μM, GR55562 1 μM, ketanserin 0.1 μM or combinations; 45 min incubation; endothelium-intact
Answers are plain numbers, in mN.

Reference set (3 entries):
{"columns": ["compound", "units-of-measure", "measured-result"],
 "data": [
  ["O=C(c1ccc(F)cc1)C1CCN(CCn2c(=O)[nH]c3ccccc3c2=O)CC1 [Ketanserin, ketanserin]", "mN", 7.7],
  ["CN(C)CCCC1(c2ccc(F)cc2)OCc2cc(C#N)ccc21 (stereo not shown) [Citalopram]", "mN", 8.9],
  ["Cc1nc(-c2ccc(-c3ccc(C(=O)N4CCc5cc6c(cc54)C4(CCN(C)CC4)CO6)cc3)c(C)c2)no1 [SB224289]", "mN", 7.0]
]}

Next compound, please.
Noted for CN(C)CCCc1cc(C(=O)Nc2ccc(-c3ccncc3)cc2)ccc1O [GR55562] : its Tension (contractile response to 5-HT in absolute terms) reads 7.2
